# measured_on: KRAS G12C (Homo sapiens (Human), UniProt P01116, C118A/G12C)
# Sequence (P01116 other isoform, or with tags, fused parts or gaps G12C/C118A): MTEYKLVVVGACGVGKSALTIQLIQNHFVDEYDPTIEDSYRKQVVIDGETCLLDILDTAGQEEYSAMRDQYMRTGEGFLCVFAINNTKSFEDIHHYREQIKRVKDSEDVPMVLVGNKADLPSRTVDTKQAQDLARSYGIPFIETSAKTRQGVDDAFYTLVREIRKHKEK
# method_description: 2 h coupled exchange assay
# Assay type: biochemical
# applied_conditions: Avg 2 h Coupled exchange IC50, 2 h compound pre-incubation
So I've got a bunch of compounds here, and I need their IC50 values.
Only the number, expressed in nM, is required.

**Query** Value lookup for IC50; key = C=CC(=O)N1CC2(CCN(c3nc4c(c(-c5cc(O)ccc5Cl)c3C#N)CCC(c3scnc3C)=C4)C2)C1
**Result** 33

**Query** Value lookup for IC50; key = C=CC(=O)N1CC2(CCN(c3nc4cc(-c5scnc5C)cnc4c(-c4cccc(O)c4)c3C#N)C2)C1
**Result** 958

**Query** Value lookup for IC50; key = C=CC(=O)N1CC2(CCN(c3nc4cc(-c5ocnc5C)ccc4c(-c4ccccc4Cl)c3C#N)C2)C1
**Result** 722

**Query** Value lookup for IC50; key = C=CC(=O)N1CC2(CCN(c3nc4c(c(-c5ncccc5F)c3C#N)CCN(c3scnc3C)C4)C2)C1
**Result** 189
